Assay: Inhibition of CRTH2-mediated chemotaxis of human eosinophils towards PGD2 after 30 mins by fluorescence counter

| molecular_string | IC50 (nM) |
| --- | --- |
| O=C(O)COc1ccc(Cl)cc1C#Cc1ccccc1Cl | 123 |

Reference source: BindingDB's records for doi:10.1021/jm200866y
